Experiment Notes: recombinant UMI read abundance after kanamycin selection (control-corrected) (log10(CPM+1)); higher = more efficient recombination; extreme values may be limits of the assay; sequences stand for … in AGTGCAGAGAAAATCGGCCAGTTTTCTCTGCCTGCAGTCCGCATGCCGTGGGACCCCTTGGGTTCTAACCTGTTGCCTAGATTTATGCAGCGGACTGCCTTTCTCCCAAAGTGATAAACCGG…AGGTTGGTTTCACT; site = the 11-nt donor;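 also: IS621 bridge recombinase in Escherichia coli cells against a fixed T5 target plasmid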
Parameter: recombinant UMI read abundance (log10). Scope: all listed entries.
Metric Name: recombinant UMI read abundance (log10)

INSERT INTO measurements (query_sequence, metric_name, reading) VALUES
  ('CCCATAACATGGACCGGTTTTCCCGGTAATCCGTATTTGTC (site CCCATAACTGA)', 'recombinant UMI read abundance (log10)', 0),
  ('GAACAATCATGGACCGGTTTTCCCGGTAATCCGTATTTGCC (site GAACAATCTGG)', 'recombinant UMI read abundance (log10)', 1.67),
  ('CCTAAAGCATGGACCGGTTTTCCCGGTAATCCGTATTTGAT (site ACTAAAGCTAT)', 'recombinant UMI read abundance (log10)', 0);
